Source: patent US7361676B2

Items are presented alongside their recorded Intrinsic rate.
experiment: Intrinsic dissolution rate (USP 24 <1087>); assay type: physicochemical; settings: pellets, second fluid of the disintegration test of Japanese Pharmacopoeia, 50 rpm

COMPOUND: Cc1nc(-c2ccc(OCC(C)C)c(C#N)c2)sc1C(=O)O [Crystal C]
Intrinsic rate, mg/cm^2/min: 0.0694
--
COMPOUND: Cc1nc(-c2ccc(OCC(C)C)c(C#N)c2)sc1C(=O)O [Crystal E]
Intrinsic rate, mg/cm^2/min: 0.1874
--
COMPOUND: Cc1nc(-c2ccc(OCC(C)C)c(C#N)c2)sc1C(=O)O [Crystal D]
Intrinsic rate, mg/cm^2/min: 0.1092
--
COMPOUND: Cc1nc(-c2ccc(OCC(C)C)c(C#N)c2)sc1C(=O)O [Crystal B]
Intrinsic rate, mg/cm^2/min: 0.1242
--
COMPOUND: Cc1nc(-c2ccc(OCC(C)C)c(C#N)c2)sc1C(=O)O [Crystal G]
Intrinsic rate, mg/cm^2/min: 0.0967
--
COMPOUND: Cc1nc(-c2ccc(OCC(C)C)c(C#N)c2)sc1C(=O)O [Crystal A]
Intrinsic rate, mg/cm^2/min: 0.1434

----------
assay: Physical stability of drug substance crystals at 40° C./75% RH (HPLC degradant, XRD/TG transformation); format: physicochemical; details: 40° C./75% RH without closure; analysis XRD or TG

COMPOUND: Cc1nc(-c2ccc(OCC(C)C)c(C#N)c2)sc1C(=O)O [Crystal D]
50% Transform time (h): 0.25

COMPOUND: Cc1nc(-c2ccc(OCC(C)C)c(C#N)c2)sc1C(=O)O [Crystal B]
50% Transform time (h): 14

----------
test: Physical stability of drug substance crystals at 40° C./75% RH (HPLC degradant, XRD/TG transformation); assay type: physicochemical; details: 40° C./75% RH, storage for three months
MEASURED PROPERTY: Transformation of crystal form on storage

COMPOUND: Cc1nc(-c2ccc(OCC(C)C)c(C#N)c2)sc1C(=O)O [Crystal C]
ASSAY RESULT: stable
--
COMPOUND: Cc1nc(-c2ccc(OCC(C)C)c(C#N)c2)sc1C(=O)O [Crystal G]
ASSAY RESULT: stable
--
COMPOUND: Cc1nc(-c2ccc(OCC(C)C)c(C#N)c2)sc1C(=O)O [Crystal A]
ASSAY RESULT: stable

----------
experiment: Pulverized particle size by image analysis; format: physicochemical
Items are presented alongside their recorded Pulverized particle size, average particle diameter.
MEASURED PROPERTY: Pulverized particle size, average particle diameter (μm)

COMPOUND: Cc1nc(-c2ccc(OCC(C)C)c(C#N)c2)sc1C(=O)O [Particle 3]
ASSAY RESULT: 26.2
//
COMPOUND: Cc1nc(-c2ccc(OCC(C)C)c(C#N)c2)sc1C(=O)O [Particle 1]
ASSAY RESULT: 3.5
//
COMPOUND: Cc1nc(-c2ccc(OCC(C)C)c(C#N)c2)sc1C(=O)O [Particle 4]
ASSAY RESULT: 48.6
//
COMPOUND: Cc1nc(-c2ccc(OCC(C)C)c(C#N)c2)sc1C(=O)O [Particle 2]
ASSAY RESULT: 12.9

----------
experiment: Physical stability of drug substance crystals at 40° C./75% RH (HPLC degradant, XRD/TG transformation); format: physicochemical; conditions: 40° C./75% RH with closure; analysis XRD or TG

COMPOUND: Cc1nc(-c2ccc(OCC(C)C)c(C#N)c2)sc1C(=O)O [Crystal E]
50% Transform time [days]: 55
//
COMPOUND: Cc1nc(-c2ccc(OCC(C)C)c(C#N)c2)sc1C(=O)O [Crystal D]
50% Transform time [days]: 17
//
COMPOUND: Cc1nc(-c2ccc(OCC(C)C)c(C#N)c2)sc1C(=O)O [Crystal B]
50% Transform time [days]: 5
